# Tested on: NCI-H1944;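 further: CTB read-out in 384-well plates, triplicate wells, NPI normalised per plate against 1 µM phenylarsine oxide (0) and 0.1% DMSO (1) controls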
# ASSAY PROCEDURE: normalised cell viability (NPI; 0 = phenylarsine oxide control, 1 = DMSO control) (fraction of DMSO control); NCI-H1944 is a non-small cell lung cancer line; higher = more viable cells (less compound toxicity)
# STATED CONDITIONS: glucocorticoid arm: vehicle; compound 5 µM; 6 days
Structures can show the parent of a compound that is named as a salt. The full ranking holds about 1,900 compounds; the median of “normalised cell viability (NPI; 0 = phenylarsine oxide control, 1 = DMSO control)” is about 1, and the lowest 2% start at about 0.039. This is one part of a sample in which the lowest values are shown more often than they occur.
QUANTITY NAME: normalised cell viability

INSERT INTO assay_data (molecule, quantity_name, measured_result) VALUES
  ('CCCC(CCC)C(=O)NO [Valproic acid hydroxamate]', 'normalised cell viability', 0.999),
  ('CNC(CC(=O)O)C(=O)O (centres undefined)', 'normalised cell viability', 0.997),
  ('COc1ccc2c(c1)c(CC(=O)O)c(C)n2Cc1ccc(F)cc1', 'normalised cell viability', 0.974),
  ('Nc1cc(C(F)(F)F)c(-c2cc(N3CCOCC3)nc(N3CCOCC3)n2)cn1', 'normalised cell viability', 0.0297),
  ('CC(C)C[C@H](NP(=O)(O)O[C@H]1O[C@H](C)[C@@H](O)[C@H](O)[C@@H]1O)C(=O)N[C@@H](Cc1c[nH]c2ccccc12)C(=O)O [Phosphoramidon disodium]', 'normalised cell viability', 0.985),
  ('N[C@@H](Cc1c[nH]cn1)C(=O)O [L-Histidine hydrochloride]', 'normalised cell viability', 0.997),
  ('CCN1CCN(Cc2ccc(Nc3ncc(F)c(-c4cc(F)c5nc(C)n(C(C)C)c5c4)n3)nc2)CC1', 'normalised cell viability', 0.000109),
  ('Cc1nc(N=Nc2cc(S(=O)(=O)O)c3cc([N+](=O)[O-])cc(S(=O)(=O)O)c3c2)c(COP(=O)(O)O)c(C=O)c1O [PPNDS tetrasodium]', 'normalised cell viability', 0.999),
  ('Nc1nc2c(nc(Br)n2C2OC3COP(=O)(O)O[C@@H]3C2O)c(=O)[nH]1 (some centres undefined) [8-Bromo-cGMP sodium]', 'normalised cell viability', 1.01),
  ('CNCC[C@H](Oc1cccc2ccccc12)c1cccs1 [Duloxetine HCl]', 'normalised cell viability', 0.992),
  ('COc1cc2c(cc1C(F)(F)F)N(C(=O)Nc1cc(F)cc(-c3cccnc3)c1)CC2', 'normalised cell viability', 0.00107),
  ('COc1ccc(NC(=O)c2ccc(-c3ccc(-c4noc(C)n4)cc3C)cc2)cc1N1CCN(C)CC1', 'normalised cell viability', 0.000181),
  ('Cc1[nH]c2ccccc2c1CCNCc1ccc(/C=C/C(=O)NO)cc1', 'normalised cell viability', '9e-05'),
  ('COC(=O)Nc1ccc(-c2nc(N3CCOCC3)c3cnn(C4CCN(C(=O)OC)CC4)c3n2)cc1', 'normalised cell viability', 0.924),
  ('Cn1c(=O)c2nc[nH]c2n(C)c1=O', 'normalised cell viability', 0.991),
  ('COc1ccc(CCNC[C@@H](O)c2ccc(O)cc2)cc1OC [R(-)-Denopamine]', 'normalised cell viability', 1.01),
  ('Cc1ccccc1N1CCN(S(=O)(=O)C[C@]23CC[C@H](C[C@@H]2NC(=O)[C@@H](N)CCS(C)(=O)=O)C3(C)C)CC1 [L-368,899 hydrochloride]', 'normalised cell viability', 0.999),
  ('NC1(Cc2ccc(Cl)cc2)CCN(c2ncnc3[nH]ccc23)CC1', 'normalised cell viability', 0.827),
  ('N[C@@H](CCC(=O)N[C@@H](CSN=O)C(=O)NCC(=O)O)C(=O)O', 'normalised cell viability', 1);

Values were extracted from the supplement of paper PMC8285479.
